- TARGET SYSTEM: NAMPT (Homo sapiens, UniProt P43490)
- Construct: His tag; host or cells: E. coli
- Sequence (P43490 whole entry): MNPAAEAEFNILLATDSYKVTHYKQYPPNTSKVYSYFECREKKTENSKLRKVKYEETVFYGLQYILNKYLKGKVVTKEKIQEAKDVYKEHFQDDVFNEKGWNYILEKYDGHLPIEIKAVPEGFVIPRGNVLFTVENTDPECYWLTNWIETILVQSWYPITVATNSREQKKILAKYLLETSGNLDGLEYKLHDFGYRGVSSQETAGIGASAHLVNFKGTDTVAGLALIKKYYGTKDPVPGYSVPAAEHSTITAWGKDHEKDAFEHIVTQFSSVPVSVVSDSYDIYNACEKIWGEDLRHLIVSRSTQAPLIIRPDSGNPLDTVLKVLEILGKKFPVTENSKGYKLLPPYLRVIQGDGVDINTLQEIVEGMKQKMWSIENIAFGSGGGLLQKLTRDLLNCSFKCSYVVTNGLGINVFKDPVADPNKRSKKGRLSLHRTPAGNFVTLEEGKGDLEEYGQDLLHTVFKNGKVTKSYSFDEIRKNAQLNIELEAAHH
- PROCEDURE SUMMARY: Biochemical inhibition assay: NAMPT enzymatic reaction, NMN quantified by mass spectrometry
- EXPERIMENTAL CONDITIONS: NAMPT enzymatic assay; read-out: Biochem IC50
ASSAY READOUT: IC50

Below: 2 compounds and their reported IC50.
| SMILES STR | IC50 |
| --- | --- |
| O=C(NCc1ccc(S(=O)(=O)c2ccccc2)cc1)c1ccc2cnccc2n1 | 2850 nM |
| O=C(NCc1ccc(S(=O)(=O)c2cccc(C(F)(F)F)c2Cl)cc1)c1cnc2[nH]ncc2c1 | 36.5 nM |

Q: Give recorded IC50 with NAMPT (Homo sapiens, UniProt P43490) for the following compound: Cc1ccc(Cl)c(S(=O)(=O)c2ccc(CNC(=O)c3cc4ccncc4o3)cc2)c1F
A: 21.9 nM

Q: Entry CN(C)c1ncc(S(=O)(=O)c2ccc(CNC(=O)c3cc4ccncc4s3)cc2)cn1 , system NAMPT (Homo sapiens, UniProt P43490): what IC50 was measured?
A: 8 nM

Q: API: value(readout= IC50, system= NAMPT (Homo sapiens, UniProt P43490), query= O=C(NCc1ccc(S(=O)(=O)c2ccc(C(F)(F)F)c(Cl)c2)cc1)c1ccc2nccn2c1 )
A: 2.9 nM

Q: Provide value of IC50 for this record tested with NAMPT (Homo sapiens, UniProt P43490): O=C(NC1CCCC1)c1cccc(S(=O)(=O)c2ccc(CNC(=O)c3cc4ccncc4s3)cc2)c1
A: 4.8 nM

Q: Recorded IC50 for Cn1ncc2cccc(S(=O)(=O)c3ccc(CNC(=O)c4cc5cnccc5[nH]4)cc3)c21 with NAMPT (Homo sapiens, UniProt P43490), please?
A: 37.1 nM

Q: Tell me reported IC50 for O=C(NCc1ccc(S(=O)(=O)c2ccc(OCC(F)(F)F)c(F)c2)cc1)c1cc2ccncc2s1 , tested with NAMPT (Homo sapiens, UniProt P43490).
A: 4.6 nM

Q: Could you share what IC50 was measured for CC(C)c1cccc(S(=O)(=O)c2ccc(CNC(=O)c3ccc4nccn4c3)cc2)c1 , tested on NAMPT (Homo sapiens, UniProt P43490)?
A: 12.4 nM

Q: // lookup IC50 | system=NAMPT (Homo sapiens, UniProt P43490) | key= CC(C)Oc1cccc(S(=O)(=O)c2ccc(CNC(=O)c3ccc4nccn4c3)cc2)c1F
A: 7.8 nM

Q: Which IC50 is reported with NAMPT (Homo sapiens, UniProt P43490) for this entry: O=C(NCc1ccc(S(=O)(=O)c2cccc(OCCN3CCOCC3)c2)cc1)c1cc2cnccc2[nH]1 ?
A: 64.9 nM

Q: // map O=C(NCc1ccc(S(=O)(=O)c2cc(OC(F)(F)F)ccc2Cl)cc1)c1cc2cnccc2[nH]1 to recorded IC50 (system: NAMPT (Homo sapiens, UniProt P43490))
A: 53.1 nM

Q: Recall the recorded IC50 for O=C(NCc1ccc(S(=O)(=O)C2CCCCC2)cc1)c1cc2cnccc2[nH]1 with NAMPT (Homo sapiens, UniProt P43490) and state it.
A: 5 nM

Q: Under NAMPT (Homo sapiens, UniProt P43490): IC50 value of O=C(NCc1ccc(S(=O)(=O)c2ccc(Cn3ccnc3)cc2)cc1)c1cc2ccncc2o1 ?
A: 19 nM

Q: # value lookup — system NAMPT (Homo sapiens, UniProt P43490), readout IC50, item O=C(NCc1ccc(S(=O)(=O)c2cccc(OC(F)(F)F)c2)cc1)c1cnc2nccn2c1
A: 2.5 nM

Q: Please state recorded IC50 (tested on NAMPT (Homo sapiens, UniProt P43490)) of O=C(NCc1ccc(S(=O)(=O)c2ccc(C(F)(F)F)cc2OCC(F)(F)F)cc1)c1ccc2nccn2c1
A: 7 nM

Q: # returns recorded IC50 (system: NAMPT (Homo sapiens, UniProt P43490)) for Cc1ccc(S(=O)(=O)c2ccc(CNC(=O)c3cnc4[nH]ncc4c3)cc2)s1
A: 22.3 nM

Q: Form entry - test system: NAMPT (Homo sapiens, UniProt P43490); read-out: IC50; compound: O=C(NCc1ccc(S(=O)(=O)c2cccc(-c3ncccn3)c2)cc1)c1ccc2nccn2c1
A: 21.9 nM

Q: Give IC50 (NAMPT (Homo sapiens, UniProt P43490)) of the following compound: O=C(NCc1ccc(S(=O)(=O)c2ccc(N3CCOCC3)cc2)cc1)c1ccc2nccn2c1
A: 3.5 nM

src = patent US12336981B2
